- Experiment: Cytotoxicity in IL-3-dependent mouse 32D cells expressing Bcr-Abl after 3 days by WST-1 assay
- Format: functional, cell-based
- Test Settings: 72 h
Please go through the items and note down their EC50.

Recorded EC50 for CCOC(=O)N1CCN(C(=O)Cn2sc3nc(C)cc(C)c3c2=O)CC1 , please?
880 nM

Recorded EC50 for CC(C)(C)OC(=O)N1CCN(C(=O)Cn2sc3ccccc3c2=O)CC1 , please?
650 nM

Recorded EC50 for CC(C)(C)OC(=O)N1CCN(C(=O)Cn2sc3ncccc3c2=O)CC1 , please?
1400 nM

###

- Assayed Target: Thymidylate kinase (Homo sapiens)
- Experiment: Inhibition of GST-tagged human TMPK expressed in Escherichia coli BL21 at 2 uM incubated for 10 mins by luciferase-coupled TMPK assay
Active and inactive are the calls of the source. The rule behind the calls is not given here.
Readout Label: inhibition

CCOC(=O)N1CCN(C(=O)Cn2sc3nc(C)cc(C)c3c2=O)CC1	70%
CC(C)(C)OC(=O)N1CCN(C(=O)Cn2sc3ccccc3c2=O)CC1	91.3%
CCOC(=O)N1CCN(C(=O)COc2nsc3cc(C)cc(C)c23)CC1	inactive
CC(C)(C)OC(=O)N1CCN(C(=O)COc2nsc3ncccc23)CC1	inactive
